- Species on record: Homo sapiens
- assay notes: Selectivity ratio of Ki for human beta1 adrenergic receptor to Ki for human beta2 adrenergic receptor
experimental readout: Ratio Ki

Inquiry: What measured Ratio Ki goes with COc1ccc(Nc2ccc(CCNC[C@H](O)c3ccc(O)c4[nH]c(=O)ccc34)cc2)cc1-c1ccc(CN)cc1 ?
Reply text: 101

Inquiry: One more molecule: O=CNc1cc([C@@H](O)CNCCc2ccc(NC[C@H](O)c3ccccc3)cc2)ccc1O
Reply text: 2910

I: O=c1ccc2c([C@@H](O)CNCCc3ccc(Nc4ccc(OCCN5CCOCC5)cc4)cc3)ccc(O)c2[nH]1
II: NCCCOc1ccc(Nc2ccc(CCNC[C@H](O)c3ccc(O)c4[nH]c(=O)ccc34)cc2)cc1
Inquiry: Given I and II , report the one with the higher recorded Ratio Ki. Choose, then provide that item's label.
Reply text: II
(II: 95, I: 41)

* * *

- assay notes: Oral bioavailability in rat
- Format: ADME, organism-based
- study conditions: in vivo
experimental readout: bioavailability (%)
Reply numerically in %, unit not repeated.

Inquiry: bioavailability lookup needed for CC(C)(N)COc1ccc(Nc2ccc(CCNC[C@H](O)c3ccc(O)c4[nH]c(=O)ccc34)cc2)cc1 , thanks.
Reply text: 1

* * *

- assay target: UniProt P13945
- assay notes: Agonist activity at human beta3 adrenergic receptor expressed in cells by cAMP accumulation assay
pEC50: −log10 of the molar value.
experimental readout: pEC50

Inquiry: Give its pEC50 value. Item: CC(C)(N)COc1ccc(Nc2ccc(CCNC[C@H](O)c3ccc(O)c4[nH]c(=O)ccc34)cc2)cc1-c1ccccc1
Reply text: 8.10

Inquiry: Request: O=CNc1cc([C@@H](O)CNCCc2ccc(NC[C@H](O)c3ccccc3)cc2)ccc1O [MILVETEROL]
Reply text: 7.40

Inquiry: Another compound to look at: CC(C)(N)COc1ccc(Nc2ccc(CCNC[C@H](O)c3ccc(O)c4[nH]c(=O)ccc34)cc2)cc1
Reply text: 7.20

Inquiry: Next: O=c1ccc2c([C@@H](O)CNCCc3ccc(Nc4ccc(OCCN5CCOCC5)cc4)cc3)ccc(O)c2[nH]1
Reply text: 7.30

Inquiry: Please do the same for CC(C)(N)COc1ccc(Nc2ccc(CCNC[C@H](O)c3ccc(O)c(NC=O)c3)cc2)cc1 as well.
Reply text: 7.40

Inquiry: Input O=c1ccc2c([C@@H](O)CNCCc3ccc(Nc4ccc(OCCN5CCNCC5)cc4)cc3)ccc(O)c2[nH]1
Reply text: 7.40

I: NCCOc1ccc(Nc2ccc(CCNC[C@H](O)c3ccc(O)c4[nH]c(=O)ccc34)cc2)cc1
II: COc1ccc(Nc2ccc(CCNC[C@H](O)c3ccc(O)c4[nH]c(=O)ccc34)cc2)cc1-c1ccccc1CN
Inquiry: Given I and II , report the one with the higher recorded pEC50. Refer to your chosen entry by its label in the reply.
Reply text: II

* * *

- Species: Homo sapiens
- assay notes: Selectivity ratio of Ki for human beta1 adrenergic receptor to Ki for human beta2 adrenergic receptor
experimental readout: Ratio Ki

Example compounds with recorded Ratio Ki:
Inquiry: Which Ratio Ki is listed for NCCCCOc1ccc(Nc2ccc(CCNC[C@H](O)c3ccc(O)c4[nH]c(=O)ccc34)cc2)cc1 ?
Reply text: 85

Inquiry: Subsequent entry: CC(C)(N)COc1ccc(Nc2ccc(CCNC[C@H](O)c3ccc(O)c4[nH]c(=O)ccc34)cc2)cc1-c1ccccc1
Reply text: 140

Inquiry: And for CCOc1ccc(Nc2ccc(CCNC[C@H](O)c3ccc(O)c4[nH]c(=O)ccc34)cc2)cc1 ?
Reply text: 72

Inquiry: Can you handle NCCOCCOc1ccc(Nc2ccc(CCNC[C@H](O)c3ccc(O)c4[nH]c(=O)ccc34)cc2)cc1 next?
Reply text: 95

Inquiry: Okay, and COc1ccc(Nc2ccc(CCNC[C@H](O)c3ccc(O)c4[nH]c(=O)ccc34)cc2)cc1-c1ccccc1CN ?
Reply text: 20

Inquiry: Note, next up: O=C(NCCOc1ccc(Nc2ccc(CCNC[C@H](O)c3ccc(O)c4[nH]c(=O)ccc34)cc2)cc1)c1ccccc1
Reply text: 13

I: CC(C)(C)OC(=O)NCCOc1ccc(Nc2ccc(CCNC[C@H](O)c3ccc(O)c4[nH]c(=O)ccc34)cc2)cc1
II: CC(C)(N)COc1ccc(Nc2ccc(CCNC[C@H](O)c3ccc(O)c4[nH]c(=O)ccc34)cc2)cc1
III: CC(C)(N)COc1ccc(Nc2ccc(CCNC[C@H](O)c3ccc(O)c(NC=O)c3)cc2)cc1
IV: COc1ccc(Nc2ccc(CCNC[C@H](O)c3ccc(O)c4[nH]c(=O)ccc34)cc2)cc1-c1cccc(CN)c1
Inquiry: # rank by Ratio Ki, ascending (min first) The labels, placed in the requested order, form the answer.
Reply text: I, II, III, IV
(I: 26, II: 64, III: 94, IV: 146)

a: CS(=O)(=O)N1CCN(CCOc2ccc(Nc3ccc(CCNC[C@H](O)c4ccc(O)c5[nH]c(=O)ccc45)cc3)cc2)CC1
b: O=c1ccc2c([C@@H](O)CNCCc3ccc(Nc4ccc(OCCN5CCNCC5)cc4)cc3)ccc(O)c2[nH]1
Inquiry: Among a and b , which shows a numerically higher Ratio Ki result? Answer format: the label of the selected item.
Reply text: b

I: NCCOc1ccc(Nc2ccc(CCNC[C@H](O)c3ccc(O)c4[nH]c(=O)ccc34)cc2)cc1
II: COc1ccc(Nc2ccc(CCNC[C@H](O)c3ccc(O)c4[nH]c(=O)ccc34)cc2)cc1-c1ccccc1
Inquiry: Of the two listed items, which has the higher Ratio Ki? First: I Second: II Kindly state the label of the option you pick.
Reply text: II

* * *

- assay target: Beta-3 adrenergic receptor (Homo sapiens, UniProt P13945)
- Sequence (P13945 whole entry): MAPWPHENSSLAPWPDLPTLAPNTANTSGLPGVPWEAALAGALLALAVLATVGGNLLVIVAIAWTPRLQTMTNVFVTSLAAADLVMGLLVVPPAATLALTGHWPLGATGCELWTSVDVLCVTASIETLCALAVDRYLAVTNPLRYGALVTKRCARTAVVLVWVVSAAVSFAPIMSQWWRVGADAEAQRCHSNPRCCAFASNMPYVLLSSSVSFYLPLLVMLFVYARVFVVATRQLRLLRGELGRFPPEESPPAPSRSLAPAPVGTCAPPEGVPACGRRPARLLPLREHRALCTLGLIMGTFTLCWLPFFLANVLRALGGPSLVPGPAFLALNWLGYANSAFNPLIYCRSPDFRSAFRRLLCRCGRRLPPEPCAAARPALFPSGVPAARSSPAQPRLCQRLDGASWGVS
- assay notes: Agonist activity at human beta3 adrenergic receptor expressed in cells by cAMP accumulation assay
pEC50: −log10 of the molar value.
experimental readout: pEC50

Inquiry: Give the measured pEC50 of NCCCCOc1ccc(Nc2ccc(CCNC[C@H](O)c3ccc(O)c4[nH]c(=O)ccc34)cc2)cc1 .
Reply text: 7.40

Inquiry: COc1ccc(Nc2ccc(CCNC[C@H](O)c3ccc(O)c4[nH]c(=O)ccc34)cc2)cc1-c1cccc(CN)c1 ?
Reply text: 7.60

A: NCCOCCOc1ccc(Nc2ccc(CCNC[C@H](O)c3ccc(O)c4[nH]c(=O)ccc34)cc2)cc1
B: COc1ccc(Nc2ccc(CCNC[C@H](O)c3ccc(O)c4[nH]c(=O)ccc34)cc2)cc1-c1ccc(CN)cc1
Inquiry: Which entry shows the lesser value of pEC50 here, A or B ? // return label of chosen record
Reply text: A
(A: 7.40, B: 8.00)

I: CS(=O)(=O)N1CCN(CCOc2ccc(Nc3ccc(CCNC[C@H](O)c4ccc(O)c5[nH]c(=O)ccc45)cc3)cc2)CC1
II: CC(C)(C)OC(=O)NCCOc1ccc(Nc2ccc(CCNC[C@H](O)c3ccc(O)c4[nH]c(=O)ccc34)cc2)cc1
Inquiry: Which has the higher pEC50, I or II ? // respond with label for picked entry
Reply text: II

A: NCCCOc1ccc(Nc2ccc(CCNC[C@H](O)c3ccc(O)c4[nH]c(=O)ccc34)cc2)cc1
B: O=C(NCCOc1ccc(Nc2ccc(CCNC[C@H](O)c3ccc(O)c4[nH]c(=O)ccc34)cc2)cc1)c1ccccc1
Inquiry: Looking only at measured pEC50, which entry is lower, A or B ? Which one? Tell me its label.
Reply text: A
(A: 7.40, B: 7.90)

* * *

- assay notes: Dissociation constant, pKa of the compound
- Assay type: physicochemical
experimental readout: pKa
The answer should be a number; do not append a unit.

Inquiry: Can you share its pKa? I mean this compound: O=c1ccc2c([C@@H](O)CNCCc3ccc(Nc4ccc(OCCN5CCNCC5)cc4)cc3)ccc(O)c2[nH]1
Reply text: 9.1

* * *

- assay target: hERG (KCNH2) (Homo sapiens)
- Sequence (Q12809 whole entry): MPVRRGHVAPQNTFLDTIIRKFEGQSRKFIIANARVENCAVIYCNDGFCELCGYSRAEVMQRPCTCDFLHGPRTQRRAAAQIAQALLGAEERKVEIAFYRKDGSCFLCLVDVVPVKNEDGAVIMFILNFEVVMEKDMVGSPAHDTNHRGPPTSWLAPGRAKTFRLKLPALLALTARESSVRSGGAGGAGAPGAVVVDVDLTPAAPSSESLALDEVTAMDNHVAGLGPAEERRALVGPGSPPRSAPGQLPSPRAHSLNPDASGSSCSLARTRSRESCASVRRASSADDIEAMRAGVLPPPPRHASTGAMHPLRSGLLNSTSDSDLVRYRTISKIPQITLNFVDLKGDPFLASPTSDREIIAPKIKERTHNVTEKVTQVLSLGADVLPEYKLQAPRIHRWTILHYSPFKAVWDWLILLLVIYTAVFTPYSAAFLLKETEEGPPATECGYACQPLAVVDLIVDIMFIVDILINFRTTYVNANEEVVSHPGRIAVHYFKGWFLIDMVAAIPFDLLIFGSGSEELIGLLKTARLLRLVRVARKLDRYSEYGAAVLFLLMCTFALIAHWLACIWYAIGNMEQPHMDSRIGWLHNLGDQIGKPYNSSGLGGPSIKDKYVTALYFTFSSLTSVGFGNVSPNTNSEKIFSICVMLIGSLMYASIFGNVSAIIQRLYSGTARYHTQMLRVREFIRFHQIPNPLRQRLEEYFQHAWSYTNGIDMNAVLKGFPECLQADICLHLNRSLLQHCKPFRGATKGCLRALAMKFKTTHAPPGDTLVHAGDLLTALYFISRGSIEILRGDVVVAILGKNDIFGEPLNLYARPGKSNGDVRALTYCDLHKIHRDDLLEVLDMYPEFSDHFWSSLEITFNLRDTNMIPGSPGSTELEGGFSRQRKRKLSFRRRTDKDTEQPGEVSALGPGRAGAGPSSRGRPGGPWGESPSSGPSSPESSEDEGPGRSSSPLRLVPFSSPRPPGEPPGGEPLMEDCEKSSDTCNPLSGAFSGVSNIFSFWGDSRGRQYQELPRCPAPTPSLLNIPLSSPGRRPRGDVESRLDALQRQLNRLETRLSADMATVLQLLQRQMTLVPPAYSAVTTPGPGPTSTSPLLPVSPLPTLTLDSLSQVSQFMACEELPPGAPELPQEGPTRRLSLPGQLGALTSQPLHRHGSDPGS
- assay notes: Inhibition of human ERG at 40 nM
experimental readout: inhibition at 0.04 µM (%)
Answer in %, number only, no unit symbol.

Inquiry: Quick one: inhibition at 0.04 µM of CC(C)(N)COc1ccc(Nc2ccc(CCNC[C@H](O)c3ccc(O)c4[nH]c(=O)ccc34)cc2)cc1 ?
Reply text: 7

* * *

Measurement record for Beta-2 adrenergic receptor (Homo sapiens, UniProt P07550); quantity recorded: Ki.
experimental readout: Ki (nM)

Inquiry: Given the compound NCCCOc1ccc(Nc2ccc(CCNC[C@H](O)c3ccc(O)c4[nH]c(=O)ccc34)cc2)cc1 , what is its reported Ki?
Reply text: 5.01

Inquiry: What about CCOc1ccc(Nc2ccc(CCNC[C@H](O)c3ccc(O)c4[nH]c(=O)ccc34)cc2)cc1 ?
Reply text: 12.6

Inquiry: Thanks! And CC(C)(N)COc1ccc(Nc2ccc(CCNC[C@H](O)c3ccc(O)c(NC=O)c3)cc2)cc1 ?
Reply text: 25.1

P: CC(C)(N)COc1ccc(Nc2ccc(CCNC[C@H](O)c3ccc(O)c4[nH]c(=O)ccc34)cc2)cc1
Q: O=c1ccc2c([C@@H](O)CNCCc3ccc(Nc4ccc(OCCN5CCNCC5)cc4)cc3)ccc(O)c2[nH]1
Inquiry: Hi, I'm comparing two records. Which one has the lower Ki, P or Q ? Please respond with the label that marks your chosen entry.
Reply text: P
